target: GlyT1 (Homo sapiens, UniProt P48067); construct: expressed in transfected cells; test: Glycine Transporter 1 (GlyT1) uptake assay, scintillation proximity assay of [14C]-glycine uptake; format: cell-based; conditions: SPA, four parameter logistic fit, read-out: GlyT1 (pIC50) (converted)
Attribute: IC50

| compound | experimentalValue |
| --- | --- |
| CC(C)Oc1ccc(C#N)cc1C(=O)N1Cc2cn(CC3CC3(F)F)nc2C1 (stereo not shown) | 100 to 1000 nM |
| CCc1cc(-n2cc3c(n2)CN(C(=O)c2cc(S(C)(=O)=O)ccc2N2CCC(F)(F)CC2)C3)ccn1 | < 100 nM |
| CC(C)Cn1ncc2c1CN(C(=O)c1cc(C#N)ccc1O[C@@H](C)C(F)(F)F)C2 | > 10000 nM |
| COc1c(C#N)ccc(OC(C)C(C)C)c1C(=O)N1Cc2cn(-c3ccc(F)cc3)nc2C1 (stereo not shown) | < 100 nM |
| CS(=O)(=O)c1ccc(-c2cccc(F)c2)c(C(=O)N2Cc3cn(-c4ccccn4)nc3C2)c1 | < 100 nM |

[ask] Read the entry `Cc1ccc(-n2cc3c(n2)CN(C(=O)c2c(O[C@@H](C)C(F)(F)F)ccc(C#N)c2Cl)C3)cn1` and write its reported IC50.
[reply] 100 to 1000 nM

[ask] Fill in IC50 for record `CCS(=O)(=O)c1ccc(O[C@@H](C)C(F)(F)F)c(C(=O)N2Cc3cn(-c4ccccc4F)nc3C2)c1`
[reply] < 100 nM

[ask] Provide only the value of recorded IC50 for `CS(=O)(=O)c1ccc(N2CCC(F)(F)CC2)c(C(=O)N2Cc3cn(-c4ccccc4)nc3C2)c1`
[reply] < 100 nM

[ask] Report IC50 for `COc1c(C#N)ccc(O[C@@H](C)C(F)(F)F)c1C(=O)N1Cc2cn(-c3ccc(C(F)(F)F)nc3)nc2C1`
[reply] < 100 nM

[ask] Report IC50 for `COc1c(C#N)ccc(C2(F)CCOCC2)c1C(=O)N1Cc2cn(-c3cncc(F)c3)nc2C1`
[reply] 100 to 1000 nM

[ask] Give the value of IC50 reported for the following: CC(Oc1ccc(C#N)c(Cl)c1C(=O)N1CCc2[nH]ncc2C1)C(F)(F)F (stereo not shown)
[reply] > 10000 nM

[ask] Please list IC50 recorded for the compound `CCS(=O)(=O)c1ccc(O[C@@H](C)C(F)(F)F)c(C(=O)N2Cc3cn(-c4cc(F)ccc4F)nc3C2)c1`
[reply] < 100 nM

[ask] Please give the documented IC50 of `COc1c(C#N)ccc(O[C@@H](C)C(F)(F)F)c1C(=O)N1Cc2cn(-c3cc(C)c(F)cn3)nc2C1`
[reply] < 100 nM

* * *

Target: GlyT1 (Homo sapiens)
Construct: expressed in transfected cells
Sequence (P48067 1-706): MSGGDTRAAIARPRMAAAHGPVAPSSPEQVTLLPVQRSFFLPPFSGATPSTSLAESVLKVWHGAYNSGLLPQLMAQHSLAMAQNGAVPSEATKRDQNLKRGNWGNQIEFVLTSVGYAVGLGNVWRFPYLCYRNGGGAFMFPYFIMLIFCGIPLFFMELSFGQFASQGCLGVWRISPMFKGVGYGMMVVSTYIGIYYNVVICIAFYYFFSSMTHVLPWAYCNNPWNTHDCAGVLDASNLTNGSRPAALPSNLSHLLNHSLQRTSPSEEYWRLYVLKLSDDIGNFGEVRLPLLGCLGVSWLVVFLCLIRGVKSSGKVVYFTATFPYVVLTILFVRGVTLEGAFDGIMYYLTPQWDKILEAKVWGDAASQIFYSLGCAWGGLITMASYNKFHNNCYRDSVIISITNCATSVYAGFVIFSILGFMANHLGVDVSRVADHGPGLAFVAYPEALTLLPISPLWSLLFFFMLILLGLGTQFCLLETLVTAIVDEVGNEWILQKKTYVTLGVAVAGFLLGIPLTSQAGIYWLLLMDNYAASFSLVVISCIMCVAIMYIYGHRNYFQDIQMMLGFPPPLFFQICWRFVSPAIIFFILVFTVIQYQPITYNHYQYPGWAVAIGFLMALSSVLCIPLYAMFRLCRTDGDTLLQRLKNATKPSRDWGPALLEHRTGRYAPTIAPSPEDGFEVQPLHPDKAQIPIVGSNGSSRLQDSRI
Assay: Glycine Transporter 1 (GlyT1) uptake assay, scintillation proximity assay of [14C]-glycine uptake
Format: cell-based
Settings: SPA, four parameter logistic fit, read-out: GlyT1 (pIC50) (converted)
recordedEndpoint: IC50

| compound | recordedEndpoint | experimentalValue |
| --- | --- | --- |
| CC(C)Oc1ccc(C#N)cc1C(=O)N1Cc2cn(-c3ccnc(C(C)C)c3)nc2C1 [Example 374] | IC50 | < 100 nM |

[ask] Provide one value: measured IC50 of CC(C)Oc1ccc(C#N)cc1C(=O)N1Cc2cn(-c3ccnnc3)nc2C1 [Example 422]
[reply] 100 to 1000 nM

[ask] Retrieve IC50 measured for COc1c(C#N)ccc(O[C@@H](C)C(F)(F)F)c1C(=O)N1Cc2cn(-c3ccnc(C)c3)nc2C1 [Example 18] and print it.
[reply] < 100 nM

[ask] Consider the compound CC[C@H](C)Cn1cc2c(n1)CN(C(=O)c1cc(C#N)ccc1OC(C)C)C2 [Example 416] and give its recorded IC50.
[reply] 100 to 1000 nM

* * *

Molecular target: GlyT1 (Homo sapiens, UniProt P48067)
Construct: expressed in transfected cells
Sequence (P48067 1-706): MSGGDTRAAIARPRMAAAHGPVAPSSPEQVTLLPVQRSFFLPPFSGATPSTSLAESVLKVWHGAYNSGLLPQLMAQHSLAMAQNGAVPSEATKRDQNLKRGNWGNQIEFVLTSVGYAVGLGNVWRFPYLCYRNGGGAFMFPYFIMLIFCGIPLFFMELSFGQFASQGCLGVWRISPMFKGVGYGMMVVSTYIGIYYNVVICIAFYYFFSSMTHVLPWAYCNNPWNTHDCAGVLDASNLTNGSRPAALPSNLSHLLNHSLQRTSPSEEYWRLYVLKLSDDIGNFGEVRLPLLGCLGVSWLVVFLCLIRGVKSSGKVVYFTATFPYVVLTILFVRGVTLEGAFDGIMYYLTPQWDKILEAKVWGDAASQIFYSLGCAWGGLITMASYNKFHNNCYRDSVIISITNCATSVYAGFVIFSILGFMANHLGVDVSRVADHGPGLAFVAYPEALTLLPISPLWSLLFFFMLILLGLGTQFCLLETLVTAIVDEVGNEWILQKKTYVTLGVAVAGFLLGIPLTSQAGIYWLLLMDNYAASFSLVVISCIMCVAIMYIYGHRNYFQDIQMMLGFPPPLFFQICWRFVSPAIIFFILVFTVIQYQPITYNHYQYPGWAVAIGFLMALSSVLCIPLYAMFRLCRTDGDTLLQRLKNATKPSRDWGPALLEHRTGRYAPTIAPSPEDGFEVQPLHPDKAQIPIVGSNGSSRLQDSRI
Experiment: Glycine Transporter 1 (GlyT1) uptake assay, scintillation proximity assay of [14C]-glycine uptake
Format: cell-based
Details: SPA, four parameter logistic fit, read-out: GlyT1 (pIC50) (converted)
recordedEndpoint: IC50

Some solved cases for reference:
| compound | targetOrSystem | IC50 |
| --- | --- | --- |
| CC(Oc1ccc(C#N)c(Cl)c1C(=O)N1CCc2nn(-c3ccccn3)cc2C1)C(F)(F)F (stereo not drawn) | GlyT1 (Homo sapiens, UniProt P48067) | 100 to 1000 nM |
| Cc1nn(-c2ccccc2)c2c1CN(C(=O)c1cc(S(C)(=O)=O)ccc1N1CCCCC1)CC2 | GlyT1 (Homo sapiens, UniProt P48067) | 100 to 1000 nM |
| COc1c(C#N)ccc(OCC2(C)COC2)c1C(=O)N1Cc2cn(-c3ccc(F)c(C)n3)nc2C1 | GlyT1 (Homo sapiens, UniProt P48067) | 100 to 1000 nM |

[ask] Answer with the recorded IC50 of CC(Oc1ccc(C#N)c(Cl)c1C(=O)N1CCc2c(cnn2Cc2ccccc2)C1)C(F)(F)F (stereo not drawn) only.
[reply] 100 to 1000 nM

[ask] In one line, give reported IC50 of the entry `Cc1nn(C)c(C)c1-n1cc2c(n1)CN(C(=O)c1c(O[C@@H](C)C(F)(F)F)ccc(C#N)c1Cl)C2` .
[reply] 100 to 1000 nM

[ask] Provide IC50 value for the following compound: `CC(C)Oc1ccc(S(=O)(=O)C(C)C)cc1C(=O)N1Cc2cn(-c3ccc(F)c(F)c3)nc2C1`
[reply] 100 to 1000 nM

[ask] Give a short answer stating reported IC50 for `Cc1cccnc1-n1cc2c(n1)CN(C(=O)c1c(O[C@H](C)C(F)(F)F)ccc(C#N)c1Cl)C2` .
[reply] 100 to 1000 nM

[ask] In one line, give reported IC50 of the entry `CS(=O)(=O)c1ccc(-c2cccc(F)c2)c(C(=O)N2Cc3cn(CC4CC4)nc3C2)c1` .
[reply] < 100 nM

[ask] Answer with the recorded IC50 for the compound listed here: `Cc1ccc(F)c(-n2cc3c(n2)CN(C(=O)c2cc(S(C)(=O)=O)ccc2OCC2(C)COC2)C3)c1`
[reply] 100 to 1000 nM
